Molecular target: GDP-loaded KRAS G12D (Homo sapiens, UniProt P01116, G12D)
Sequence (P01116 1-188 isoform P01116-2 G12D): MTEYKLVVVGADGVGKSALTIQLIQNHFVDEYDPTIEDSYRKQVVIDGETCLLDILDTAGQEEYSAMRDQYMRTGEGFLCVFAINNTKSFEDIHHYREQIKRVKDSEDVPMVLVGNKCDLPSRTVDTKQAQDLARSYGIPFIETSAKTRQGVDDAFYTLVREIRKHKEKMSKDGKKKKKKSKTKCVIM
Test: KRAS G12D Probe Displacement Assay
Type: binding
Details: KRAS G12D 0.5 nM, biotinylated probe 2 4 nM; Table 6 letters; read-out: KRAS G12D Probe Displacement Assay IC50 (class)
pIC50: −log10 of the molar value.
attribute measured: pIC50

Completed entries (count: 4):
| compound | system under test | pIC50 |
| --- | --- | --- |
| COC1(COc2nc(N3CC4CCC(C3)N4)c3cc(C(F)(F)F)c(-c4ccc(F)c5sc(N)nc45)c(F)c3n2)CC1 | GDP-loaded KRAS G12D (Homo sapiens, UniProt P01116, G12D) | > 7.30 |
| CC12CC(COc3nc(N4CC5CCC(C4)N5)c4cc(C(F)(F)F)c(-c5ccc(F)c6sc(N)nc56)c(F)c4n3)(CO1)C2 | GDP-loaded KRAS G12D (Homo sapiens, UniProt P01116, G12D) | > 7.30 |
| CN1C[C@H](F)C[C@H]1COc1nc(N2CC3CCC(C2)N3)c2cc(C(F)(F)F)c(-c3ccc(F)c4sc(N)c(C#N)c34)c(F)c2n1 | GDP-loaded KRAS G12D (Homo sapiens, UniProt P01116, G12D) | > 7.30 |
| Cc1cc(N)nc(-c2c(Cl)cc3c(N4CC5CCC(C4)N5)nc(OCC4(CO)CCCC4)nc3c2F)c1C(F)(F)F | GDP-loaded KRAS G12D (Homo sapiens, UniProt P01116, G12D) | 7.00 to 7.30 |

stdin: Respond only with pIC50 recorded for Nc1nc2c(-c3c(C(F)(F)F)cc4c(N5CC6CCC(C5)N6)nc(OCC5CCCCO5)nc4c3F)ccc(F)c2s1 (stereo not drawn)
stdout: > 7.30

stdin: Respond only with pIC50 recorded for Nc1nc2c(-c3c(C(F)(F)F)cc4c(N5CC6CCC(C5)N6)nc(OCC5CC(O)C5)nc4c3F)ccc(F)c2s1 (stereo not drawn)
stdout: > 7.30
